protocol.details: in vivo
assay.conditions: Wistar, rat, po, 3 mg/kg
property.measured: AUC(0-t) (µM·h)
Answers are plain numbers, in µM·h.

Reported AUC(0-t) of OC1Cc2cc(Cl)ccc2-n2c(nnc2[C@H]2CC[C@H](Oc3ccccn3)CC2)C1 (mixture of isomers) : 0.481

----------
protocol.details: Half life in Wistar rat brain at 3 mg/kg, po by HPLC-MS/MS analysis
property.measured: half-life

Reported half-life of OC1Cc2cc(Cl)ccc2-n2c(nnc2[C@H]2CC[C@H](Oc3ccccn3)CC2)C1 (mixture of isomers) : 1.43 h

----------
subject.of.test: Cytochrome P450 2C9 (Homo sapiens, UniProt P11712)
Sequence (P11712 whole entry): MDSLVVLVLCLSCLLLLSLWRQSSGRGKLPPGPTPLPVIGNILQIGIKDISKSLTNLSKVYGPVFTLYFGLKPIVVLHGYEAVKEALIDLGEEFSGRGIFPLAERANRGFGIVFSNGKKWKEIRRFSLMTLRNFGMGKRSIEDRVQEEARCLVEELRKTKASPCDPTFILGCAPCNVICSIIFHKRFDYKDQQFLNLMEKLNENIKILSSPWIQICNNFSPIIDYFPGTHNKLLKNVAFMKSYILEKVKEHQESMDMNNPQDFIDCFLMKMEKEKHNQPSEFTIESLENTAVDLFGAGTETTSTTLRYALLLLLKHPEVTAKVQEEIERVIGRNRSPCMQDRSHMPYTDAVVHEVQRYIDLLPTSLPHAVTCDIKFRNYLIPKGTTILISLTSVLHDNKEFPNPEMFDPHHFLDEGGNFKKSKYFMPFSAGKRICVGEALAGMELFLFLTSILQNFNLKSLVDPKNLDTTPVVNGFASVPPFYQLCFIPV
pIC50: −log10 of the molar value.
property.measured: pIC50

Reported pIC50 of "Clc1ccc2c(c1)CC1(Cc3nnc([C@H]4CC[C@H](Oc5ccccn5)CC4)n3-2)OCCO1" : < 5.00

----------
subject.of.test: Cytochrome P450 2B6 (Homo sapiens, UniProt P20813)
Sequence (P20813 whole entry): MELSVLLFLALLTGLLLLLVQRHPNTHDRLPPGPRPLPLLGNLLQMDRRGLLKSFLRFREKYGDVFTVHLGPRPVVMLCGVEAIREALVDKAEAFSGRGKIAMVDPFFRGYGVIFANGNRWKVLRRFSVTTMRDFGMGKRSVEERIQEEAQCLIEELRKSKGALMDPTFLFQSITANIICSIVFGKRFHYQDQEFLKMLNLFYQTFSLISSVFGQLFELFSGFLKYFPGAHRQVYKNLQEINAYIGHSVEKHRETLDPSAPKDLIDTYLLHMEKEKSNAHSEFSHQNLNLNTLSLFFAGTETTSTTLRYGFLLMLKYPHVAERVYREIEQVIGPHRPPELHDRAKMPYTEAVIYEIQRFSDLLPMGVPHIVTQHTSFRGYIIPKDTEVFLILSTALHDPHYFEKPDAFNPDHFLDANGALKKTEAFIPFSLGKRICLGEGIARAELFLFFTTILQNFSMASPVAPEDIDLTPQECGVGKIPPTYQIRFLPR
property.measured: IC50

Reported IC50 of "Clc1ccc2c(c1)CC1(Cc3nnc([C@H]4CC[C@H](Oc5ccccn5)CC4)n3-2)OCCO1" : > 10 µM

----------
protocol.details: Efflux ratio of apparent permeability across basolateral to apical side over apical to basolateral side in vinblastine treated human Caco-2 cells at 1 to 10 uM incubated for 15 to 60 hrs by HPLC analysis
Assign labels as follows, please: Y for efflux ratio at 10 µM below 7; N for efflux ratio at 10 µM equal to or exceeding 7.

Example results:
- compound: "CC(=O)N[C@@H]1Cc2cc(Cl)ccc2-n2c(nnc2[C@H]2CC[C@H](Oc3ccccn3)CC2)C1"
  label.value: "N"
- compound: "N[C@H]1Cc2cc(Cl)ccc2-n2c(nnc2[C@H]2CC[C@H](Oc3ccccn3)CC2)C1"
  label.value: "N"
- compound: "NC1Cc2cc(Cl)ccc2-n2c(nnc2[C@H]2CC[C@H](Oc3ccccn3)CC2)C1 (mixture of isomers)"
  label.value: "N"
- compound: "CCN[C@@H]1Cc2cc(Cl)ccc2-n2c(nnc2[C@H]2CC[C@H](Oc3ccccn3)CC2)C1"
  label.value: "Y"
- compound: "O=C(N[C@@H]1Cc2cc(Cl)ccc2-n2c(nnc2[C@H]2CC[C@H](Oc3ccccn3)CC2)C1)C(F)(F)F"
  label.value: "Y"
- compound: "CO[C@]1(C)CC[C@@H](c2nnc3n2-c2ccc(Cl)cc2CC2(C3)OCCO2)CC1"
  label.value: "Y"
- compound: "Clc1ccc2c(c1)CC1(Cc3nnc([C@H]4CC[C@H](Oc5ccccn5)CC4)n3-2)OCCCO1"
  label.value: "Y"
- compound: "OC1Cc2cc(Cl)ccc2-n2c(nnc2[C@H]2CC[C@H](Oc3ccccn3)CC2)C1 (mixture of isomers)"
  label.value: "Y"
- compound: "COCC1Cc2cc(Cl)ccc2-n2c(nnc2[C@H]2CC[C@H](Oc3ccccn3)CC2)C1 (some centres undefined)"
  label.value: "Y"
- compound: "O=C(N[C@@H]1Cc2cc(Cl)ccc2-n2c(nnc2[C@H]2CC[C@H](Oc3ccccn3)CC2)C1)C1CC1"
  label.value: "N"

Q: # TODO verify efflux ratio at 10 µM < 7 strictly for this compound: "CO[C@H]1Cc2cc(Cl)ccc2-n2c(nnc2[C@H]2CC[C@H](Oc3ccccn3)CC2)C1"
A: Y

Q: # TODO verify efflux ratio at 10 µM < 7 strictly for this compound: CN(C)C1Cc2cc(Cl)ccc2-n2c(nnc2[C@H]2CC[C@H](Oc3ccccn3)CC2)C1 (some centres undefined)
A: Y

Q: # TODO verify efflux ratio at 10 µM < 7 strictly for this compound: "O[C@@H]1Cc2cc(Cl)ccc2-n2c(nnc2[C@H]2CC[C@H](Oc3ccccn3)CC2)C1"
A: Y

Q: # TODO verify efflux ratio at 10 µM < 7 strictly for this compound: "CO[C@@H]1Cc2cc(Cl)ccc2-n2c(nnc2[C@H]2CC[C@H](Oc3ccccn3)CC2)C1"
A: Y

Q: # TODO verify efflux ratio at 10 µM < 7 strictly for this compound: CN1CCN(CC2Cc3cc(Cl)ccc3-n3c(nnc3[C@H]3CC[C@H](Oc4ccccn4)CC3)C2)CC1 (some centres undefined)
A: N

Q: # TODO verify efflux ratio at 10 µM < 7 strictly for this compound: "N[C@@H]1Cc2cc(Cl)ccc2-n2c(nnc2[C@H]2CC[C@H](Oc3ccccn3)CC2)C1"
A: N

Q: # TODO verify efflux ratio at 10 µM < 7 strictly for this compound: CNC1Cc2cc(Cl)ccc2-n2c(nnc2[C@H]2CC[C@H](Oc3ccccn3)CC2)C1 (some centres undefined)
A: Y

----------
protocol.details: in vitro
assay.conditions: NMRI, mouse, microsomes
property.measured: microsomal CLint at 1 µM (µL/min/mg)
Give bare numbers, in µL/min/mg.

Examples with answers:
- compound: "NC1Cc2cc(Cl)ccc2-n2c(nnc2[C@H]2CC[C@H](Oc3ccccn3)CC2)C1 (mixture of isomers)"
  microsomal CLint at 1 µM [µL/min/mg]: 14
- compound: "CNC1Cc2cc(Cl)ccc2-n2c(nnc2[C@H]2CC[C@H](Oc3ccccn3)CC2)C1 (some centres undefined)"
  microsomal CLint at 1 µM [µL/min/mg]: 24
- compound: "Clc1ccc2c(c1)CC1(Cc3nnc([C@H]4CC[C@H](Oc5ccccn5)CC4)n3-2)OCCCCO1"
  microsomal CLint at 1 µM [µL/min/mg]: 211

Reported microsomal CLint at 1 µM of OC1Cc2cc(Cl)ccc2-n2c(nnc2[C@H]2CC[C@H](Oc3ccccn3)CC2)C1 (mixture of isomers) : 6

----------
assay.conditions: human, microsomes, 1 µM
Assign labels as follows, please: Yes for CLH below 7 mL/h/kg; No for CLH equal to or exceeding 7 mL/h/kg.

Example results:
- molecule: "Clc1ccc2c(c1)CC1(Cc3nnc([C@H]4CC[C@H](Oc5ccccn5)CC4)n3-2)OCCCCO1"
  label.value: "No"
- molecule: "OC1Cc2cc(Cl)ccc2-n2c(nnc2[C@H]2CC[C@H](Oc3ccccn3)CC2)C1 (mixture of isomers)"
  label.value: "Yes"
- molecule: "COCC1Cc2cc(Cl)ccc2-n2c(nnc2[C@H]2CC[C@H](Oc3ccccn3)CC2)C1 (some centres undefined)"
  label.value: "Yes"

Q: # TODO verify CLH < 7 mL/h/kg strictly for this molecule: "O=C1Cc2cc(Cl)ccc2-n2c(nnc2[C@H]2CC[C@H](Oc3ccccn3)CC2)C1"
A: No

Q: # TODO verify CLH < 7 mL/h/kg strictly for this molecule: Clc1ccc2c(c1)CC1(CCCOC1)Cc1nnc([C@H]3CC[C@H](Oc4ccccn4)CC3)n1-2 (some centres undefined)
A: No

Q: # TODO verify CLH < 7 mL/h/kg strictly for this molecule: Clc1ccc2c(c1)CC1(CCOC1)Cc1nnc([C@H]3CC[C@H](Oc4ccccn4)CC3)n1-2 (some centres undefined)
A: Yes

Q: # TODO verify CLH < 7 mL/h/kg strictly for this molecule: "FC(F)(F)[C@H]1CC[C@H](c2nnc3n2-c2ccc(Cl)cc2CC2(C3)OCCO2)CC1"
A: Yes

----------
protocol.details: in vivo
assay.conditions: Wistar, rat, brain, po, 3 mg/kg
property.measured: Kp

Reported Kp of OC1Cc2cc(Cl)ccc2-n2c(nnc2[C@H]2CC[C@H](Oc3ccccn3)CC2)C1 (mixture of isomers) : 0.54

----------
protocol.details: in vivo
assay.conditions: Wistar, rat, plasma, po, 3 mg/kg
property.measured: Cmax (nM)
Numbers only, in nM.

Reported Cmax of OC1Cc2cc(Cl)ccc2-n2c(nnc2[C@H]2CC[C@H](Oc3ccccn3)CC2)C1 (mixture of isomers) : 403

----------
protocol.details: in vitro
assay.conditions: human, liver microsomes
property.measured: microsomal CLint at 1 µM (µL/min/mg)
One number for each entry, in µL/min/mg.

Reported microsomal CLint at 1 µM of "Clc1ccc2c(c1)CCCc1nnc([C@H]3CC[C@H](Oc4ccccn4)CC3)n1-2" : 29

----------
protocol.details: in vitro
assay.conditions: Wistar, rat, microsomes
property.measured: microsomal CLint at 1 µM

// batch mode: one microsomal CLint at 1 µM value per listed entry
1. CN(C)C1Cc2cc(Cl)ccc2-n2c(nnc2[C@H]2CC[C@H](Oc3ccccn3)CC2)C1 (stereo partly drawn)
2. NC1Cc2cc(Cl)ccc2-n2c(nnc2[C@H]2CC[C@H](Oc3ccccn3)CC2)C1 (mixture of isomers)

A:
1: 36 µL/min/mg; 2: 11 µL/min/mg

// batch mode: one microsomal CLint at 1 µM value per listed entry
1. CO[C@@H]1Cc2cc(Cl)ccc2-n2c(nnc2[C@H]2CC[C@H](Oc3ccccn3)CC2)C1
2. O=C(N[C@@H]1Cc2cc(Cl)ccc2-n2c(nnc2[C@H]2CC[C@H](Oc3ccccn3)CC2)C1)C1CCC(F)(F)CC1
3. Clc1ccc2c(c1)CC1(Cc3nnc([C@H]4CC[C@H](Oc5ccccn5)CC4)n3-2)OCCCCO1
4. O=C1Cc2cc(Cl)ccc2-n2c(nnc2[C@H]2CC[C@H](Oc3ccccn3)CC2)C1

A:
1. 41 µL/min/mg
2. 32 µL/min/mg
3. 229 µL/min/mg
4. 43 µL/min/mg

// batch mode: one microsomal CLint at 1 µM value per listed entry
1. CNC1Cc2cc(Cl)ccc2-n2c(nnc2[C@H]2CC[C@H](Oc3ccccn3)CC2)C1 (stereo partly drawn)
2. CCN[C@@H]1Cc2cc(Cl)ccc2-n2c(nnc2[C@H]2CC[C@H](Oc3ccccn3)CC2)C1

A:
1: 19 µL/min/mg; 2: 15 µL/min/mg
